Reference for the values: patent US20190315823A1

Below, each of the substances is paired with its reported IL1β Production value.
- System: LPS-stimulated human peripheral blood mononuclear cells (IL1-β)
- Type: cell-based
- Recorded Conditions: Table 12; cells stimulated with 10 ng/ml LPS; LPS alone 1313 (HH2 derivatives), 1927 (1018 derivatives), 2455 (1002 and hybrid peptides) pg/ml
- Experimental: LPS from P. aeruginosa strain H103 was highly purified free of proteins and lipids using the Darveau-Hancock method. Briefly, P. aeruginosa was grown overnight in LB broth at 37° C. […] Purified LPS samples were quantitated using an assay for the specific sugar 2-keto-3-deoxyoctosonic acid (KDO assay) and then resuspended in endotoxin-free water (Sigma-Aldrich).
Ends that are not written are not given here.
Readout Label: IL1β Production (pg/mL)

> print(dat)
                                   substance  value.measured
 1  HH2-G2: single substituted HH2 peptide (VGLRIRVAVIRA-NH2)            1400
 2  HH2-Q4: single substituted HH2 peptide (VQLQIRVAVIRA-NH2)             817
 3  1002-G1: single substituted 1002 peptide (GQRWLIVWRIRK-NH2) [Peptide 1002-G1]             127
 4  1002-W2: single substituted 1002 peptide (VWRWLIVWRIRK-NH2) [Peptide 1002-W2]             127
 5  1018-G3: single substituted 1018 peptide (VRGIVAVRIWRR-NH2) [Peptide 1018-G3]             748
 6  HH2-W3: single substituted HH2 peptide (VQWRIRVAVIRA-NH2)             874
 7  1002-A4: single substituted 1002 peptide (VQRALIVWRIRK-NH2) [Peptide 1002-A4]             655
 8  1018-K5: single substituted 1018 peptide (VRLIKAVRIWRR-NH2) [Peptide 1018-K5]            1722
 9  1018-L4: single substituted 1018 peptide (VRLLVAVRIWRR-NH2) [Peptide 1018-L4]             127
10  1002-L7: single substituted 1002 peptide (VQRWLILWRIRK-NH2) [Peptide 1002-L7]             127
11  1002-G3: single substituted 1002 peptide (VQGWLIVWRIRK-NH2) [Peptide 1002-G3]             127
12  1002-K6: single substituted 1002 peptide (VQRWLKVWRIRK-NH2) [Peptide 1002-K6]             808
13  1018-L11: single substituted 1018 peptide (VRLIVAVRIWLR-NH2) [Peptide 1018-L11]            1467
14  1002-K9: single substituted 1002 peptide (VQRWLIVWKIRK-NH2) [Peptide 1002-K9]             127
15  1002-Q5: single substituted 1002 peptide (VQRWQIVWRIRK-NH2) [Peptide 1002-Q5]             180
16  HH2-V11: single substituted HH2 peptide (VQLRIRVAVIVA-NH2)            1515

* * *

- Tested on: human peripheral blood mononuclear cells (MCP-1)
- Experiment Summary: SPOT-synthesized derivative screen: production of chemokine MCP-1
- Type: cell-based
- Recorded Conditions: Table 12A; No LPS; background subtracted (21.3 pg/ml)
Peptide text beside a SMILES is read from it.
Items are presented alongside their recorded MCP1.

Compound	MCP1, pg/mL
CC[C@H](C)[C@H](NC(=O)[C@H](CCCNC(=N)N)NC(=O)[C@@H](NC(=O)[C@H](CCCCN)NC(=O)[C@@H](NC(=O)[C@@H](NC(=O)[C@H](Cc1c[nH]c2ccccc12)NC(=O)[C@H](CCCNC(=N)N)NC(=O)[C@@H](N)CCCNC(=N)N)[C@@H](C)CC)C(C)C)C(C)C)C(=O)N[C@@H](CCCNC(=N)N)C(=O)N[C@@H](CCCNC(=N)N)C(=O)N[C@@H](CCCNC(=N)N)C(N)=O [Peptide 2008] (H-RRWIVKVRIRRR-NH2; N-terminus assumed)	45524
CC[C@H](C)[C@H](NC(=O)[C@H](CCCNC(=N)N)NC(=O)[C@H](Cc1c[nH]c2ccccc12)NC(=O)[C@@H](NC(=O)[C@@H](NC(=O)[C@H](CC(C)C)NC(=O)[C@H](Cc1c[nH]c2ccccc12)NC(=O)[C@H](CCCNC(=N)N)NC(=O)[C@H](CCC(N)=O)NC(=O)[C@@H](N)C(C)C)[C@@H](C)CC)C(C)C)C(=O)N[C@@H](CCCNC(=N)N)C(=O)N[C@@H](CCCCN)C(N)=O [Peptide 1002] (H-VQRWLIVWRIRK-NH2; N-terminus assumed)	11994
CC[C@H](C)[C@H](NC(=O)[C@H](CCCNC(=N)N)NC(=O)[C@@H](NC(=O)[C@H](CCCCN)NC(=O)[C@@H](NC(=O)[C@@H](NC(=O)[C@H](Cc1c[nH]c2ccccc12)NC(=O)[C@H](CCCNC(=N)N)NC(=O)[C@@H](N)C(C)C)[C@@H](C)CC)C(C)C)C(C)C)C(=O)N[C@@H](CCCNC(=N)N)C(=O)N[C@@H](CCCNC(=N)N)C(=O)N[C@@H](CCCNC(=N)N)C(N)=O [Peptide 2006] (H-VRWIVKVRIRRR-NH2; N-terminus assumed)	6714

* * *

- Tested on: methicillin resistant Staphylococcus aureus (MRSA) biofilm
- Recorded Conditions: approximate peptide concentration […] (around 3 μg/ml); compared to untreated samples
Ends that are not written are not given here.
Readout Label: % Biofilm inhibition (%)

> print(dat)
                                   substance         readout.label  value.measured
 1  1002-Q1: single substituted 1002 peptide (QQRWLIVWRIRK-NH2) [Peptide 1002-Q1]  % Biofilm inhibition              77
 2  1002-L1: single substituted 1002 peptide (LQRWLIVWRIRK-NH2) [Peptide 1002-L1]  % Biofilm inhibition              69
 3  1018-G1: single substituted 1018 peptide (GRLIVAVRIWRR-NH2) [Peptide 1018-G1]  % Biofilm inhibition              38
 4  HH2-K3: single substituted HH2 peptide (VQKRIRVAVIRA-NH2)  % Biofilm inhibition              14
 5  1002-K9: single substituted 1002 peptide (VQRWLIVWKIRK-NH2) [Peptide 1002-K9]  % Biofilm inhibition              50
 6  1018-V10: single substituted 1018 peptide (VRLIVAVRIVRR-NH2) [Peptide 1018-V10]  % Biofilm inhibition              50
 7  HH2-R5: single substituted HH2 peptide (VQLRRRVAVIRA-NH2)  % Biofilm inhibition               0
 8  1002-V12: single substituted 1002 peptide (VQRWLIVWRIRV-NH2) [Peptide 1002-V12]  % Biofilm inhibition              67
 9  1018-K9: single substituted 1018 peptide (VRLIVAVRKWRR-NH2) [Peptide 1018-K9]  % Biofilm inhibition              60
10  1002-V10: single substituted 1002 peptide (VQRWLIVWRVRK-NH2) [Peptide 1002-V10]  % Biofilm inhibition              63
11  HH2-W10: single substituted HH2 peptide (VQLRIRVAVWRA-NH2)  % Biofilm inhibition              48
12  1018-K8: single substituted 1018 peptide (VRLIVAVKIWRR-NH2) [Peptide 1018-K8]  % Biofilm inhibition              65
13  1018-W6: single substituted 1018 peptide (VRLIVWVRIWRR-NH2) [Peptide 1018-W6]  % Biofilm inhibition              75
14  1018-K5: single substituted 1018 peptide (VRLIKAVRIWRR-NH2) [Peptide 1018-K5]  % Biofilm inhibition              29
15  1018-V3: single substituted 1018 peptide (VRVIVAVRIWRR-NH2) [Peptide 1018-V3]  % Biofilm inhibition              76
16  HH2-Q10: single substituted HH2 peptide (VQLRIRVAVQRA-NH2)  % Biofilm inhibition              61
17  1018-Q6: single substituted 1018 peptide (VRLIVQVRIWRR-NH2) [Peptide 1018-Q6]  % Biofilm inhibition              55
18  1002-A12: single substituted 1002 peptide (VQRWLIVWRIRA-NH2) [Peptide 1002-A12]  % Biofilm inhibition              37
19  1002-K6: single substituted 1002 peptide (VQRWLKVWRIRK-NH2) [Peptide 1002-K6]  % Biofilm inhibition               2
20  1018-W4: single substituted 1018 peptide (VRLWVAVRIWRR-NH2) [Peptide 1018-W4]  % Biofilm inhibition              67
21  HH2-K9: single substituted HH2 peptide (VQLRIRVAKIRA-NH2)  % Biofilm inhibition              52
22  1018-L1: single substituted 1018 peptide (LRLIVAVRIWRR-NH2) [Peptide 1018-L1]  % Biofilm inhibition              72
23  1018-I7: single substituted 1018 peptide (VRLIVAIRIWRR-NH2) [Peptide 1018-I7]  % Biofilm inhibition              63
24  1018-Q5: single substituted 1018 peptide (VRLIQAVRIWRR-NH2) [Peptide 1018-Q5]  % Biofilm inhibition              13
25  1002-Q4: single substituted 1002 peptide (VQRQLIVWRIRK-NH2) [Peptide 1002-Q4]  % Biofilm inhibition              36
26  1002-V4: single substituted 1002 peptide (VQRVLIVWRIRK-NH2) [Peptide 1002-V4]  % Biofilm inhibition              69
27  HH2-L10: single substituted HH2 peptide (VQLRIRVAVLRA-NH2)  % Biofilm inhibition              63
28  1018-V2: single substituted 1018 peptide (VVLIVAVRIWRR-NH2) [Peptide 1018-V2]  % Biofilm inhibition              67
29  HH2-G11: single substituted HH2 peptide (VQLRIRVAVIGA-NH2)  % Biofilm inhibition              72
30  1018-Q2: single substituted 1018 peptide (VQLIVAVRIWRR-NH2) [Peptide 1018-Q2]  % Biofilm inhibition              52
31  1018-G5: single substituted 1018 peptide (VRLIGAVRIWRR-NH2) [Peptide 1018-G5]  % Biofilm inhibition              38
